Reference for the values: the supplement of paper PMC5412046

test system: SB.msgc-1; test: viability at highest tested concentration (MAXR) relative to DMSO; higher = less cytotoxic; settings: SB.msgc-1 (sporadic gastric cancer)
API: label(entry) gives condition met if the entry's viability is strictly smaller than 40%; on equality or larger values it gives condition not met.

[
  {
    "compound": "CC(=O)N1CCN(c2ccc(OCc3nn(C)c(C)c3-c3cccc4c(CCCOc5cc(C)c(Cl)c(C)c5)c(C(=O)O)n(Cc5cccnc5)c34)cc2)CC1 (top concentration 46.0829 µM)",
    "class.assignment": "condition met"
  },
  {
    "compound": "CN1C(=O)C[C@H](C(=O)N[C@@H](Cc2cnc[nH]2)C(=O)N2CCC[C@H]2C(N)=O)NC1=O [Taltirelin] (top concentration 46.0829 µM)",
    "class.assignment": "condition not met"
  },
  {
    "compound": "CC(O)(C#Cc1ccc2c(c1)N(c1nc(N)ncc1Cl)CC2)c1nccs1 (configuration not stated) (top concentration 46.0829 µM)",
    "class.assignment": "condition not met"
  },
  {
    "compound": "C[N+]1(C)[C@@H]2C[C@@H](OC(=O)[C@H](CO)c3ccccc3)C[C@H]1[C@@H]1O[C@@H]12.[Br-] [Methscopolamine bromide] (top concentration 46.0829 µM)",
    "class.assignment": "condition not met"
  },
  {
    "compound": "CN(CC(=O)N(Cc1ccc(C2CCCCC2)cc1)c1ccc(C(=O)O)c(O)c1)[S+](=O)([O-])c1c(F)c(F)c(F)c(F)c1F [BP-1-102] (top concentration 46.0829 µM)",
    "class.assignment": "condition met"
  },
  {
    "compound": "CC1(C)CC\\C2=C(/O1)C3=C(C=CC=C3)C(=O)C2=O [beta-Lapachone] (top concentration 46.0829 µM)",
    "class.assignment": "condition met"
  },
  {
    "compound": "Cc1cc(Nc2cc(CN3CCOCC3)c3nc(C)c(Cc4ccc(Cl)cc4F)n3n2)[nH]n1 [Gandotinib] (top concentration 46.0829 µM)",
    "class.assignment": "condition met"
  },
  {
    "compound": "CCCCCCCCCCCCc1ccc([S+](=O)([O-])Nc2nncs2)cc1 [PHT-427] (top concentration 46.0829 µM)",
    "class.assignment": "condition not met"
  },
  {
    "compound": "Cc1cc(-c2ncc(CC(=O)Nc3ccc(-c4cnccn4)cn3)cc2C)ccn1 [LGK974] (top concentration 46.0829 µM)",
    "class.assignment": "condition met"
  },
  {
    "compound": "COC1=CC=CC(=C1N)\\C2=C\\C(=O)C3=C(O2)C=CC=C3 (top concentration 46.0829 µM)",
    "class.assignment": "condition not met"
  },
  {
    "compound": "O=C(CCCCCCNC(=O)c1cnc(N(c2ccccc2)c2ccccc2)nc1)NO [ACY-1215] (top concentration 46.0829 µM)",
    "class.assignment": "condition met"
  },
  {
    "compound": "C[C@@H]1CN[C@H]2[C@@H](C)[C@@]\\3(CC[C@H]\\4[C@@H]5C/C=C6/C[C@@H](O)CC[C@]6(C)[C@H]5CC4=C3C)O[C@@H]2C1 [Cyclopamine] (top concentration 46.0829 µM)",
    "class.assignment": "condition not met"
  },
  {
    "compound": "C1CCN2C[C@H]3C[C@H](\\C=C/4CCCN[C@@H]34)[C@H]2C1 [Aloperine] (top concentration 46.0829 µM)",
    "class.assignment": "condition not met"
  },
  {
    "compound": "CC(=O)NCC(=O)N1[C@@H]2CC[C@H]1c1ccc(Nc3ncc(C(F)(F)F)c(NC4CCC4)n3)cc12 (top concentration 46.0829 µM)",
    "class.assignment": "condition met"
  },
  {
    "compound": "CC1(C)SCCN([S+](=O)([O-])c2ccc(OCC#CCO)cc2)[C@H]1C(=O)NO [Apratastat] (top concentration 46.0829 µM)",
    "class.assignment": "condition not met"
  },
  {
    "compound": "Cc1ccc(C)c(OCCCC(C)(C)C(=O)O)c1 [Gemfibrozil] (top concentration 46.0829 µM)",
    "class.assignment": "condition met"
  },
  {
    "compound": "CC/C=C\\C[C@H]1C(=O)CC[C@@H]1CC(=O)OC [methyl jasmonate] (top concentration 46.0829 µM)",
    "class.assignment": "condition not met"
  },
  {
    "compound": "O=P(O)(O)C(O)(Cn1ccnc1)P(=O)(O)O [Zoledronic acid monohydrate] (top concentration 23.0415 µM)",
    "class.assignment": "condition not met"
  },
  {
    "compound": "Cc1cc(O)c2c(c1)C(=O)c1cc(O)cc(O)c1C2=O [Emodin] (top concentration 46.0829 µM)",
    "class.assignment": "condition not met"
  },
  {
    "compound": "Nc1ccc([S+](=O)([O-])Nc2ccnn2-c2ccccc2)cc1 [Sulfaphenazole] (top concentration 46.0829 µM)",
    "class.assignment": "condition not met"
  },
  {
    "compound": "CCCCCCCCCC(=O)N[C@@H](Cc1c[nH]c2ccccc12)C(=O)N[C@H](CC(N)=O)C(=O)N[C@@H](CC(=O)O)C(=O)N[C@@H]1C(=O)NCC(=O)N[C@@H](CCCN)C(=O)N[C@@H](CC(=O)O)C(=O)N[C@H](C)C(=O)N[C@@H](CC(=O)O)C(=O)NCC(=O)N[C@H](CO)C(=O)N[C@@H]([C@@H](C)CC(=O)O)C(=O)N[C@@H](CC(=O)c2ccccc2N)C(=O)O[C@@H]1C [Daptomycin] (top concentration 46.0829 µM)",
    "class.assignment": "condition not met"
  }
]
